From: patent US20150322137A1

Molecular target: F protein of human metapneumovirus strain JPS03-178 (type A2), on infectious virus (human metapneumovirus, strain JPS03-178 …)
Test: cell-based or functional assay
OBSERVED_PROPERTY: IC90, neutralizing activity (hMPV infection of LLC-MK2 cells; GraphPad Prism 6) (µg/mL)

{"BINDER": "EV046120 (antibody, human IgG1, lambda, V domains shown) VH: EVQLVESGGGLVKPGGSLRLSCAASGFTFSSYSMNWVRQAPGKGLEWVSSISSSSSYIYYADSLKGRFTVSRDNAKKSLYLQMNSLRAEDTAVYYCARVDYGTNSEVGRFDPWGQGTLVTVSS VL: QSVLTQPPSVSGTPGQRVTISCTGSSSNIGAGYAVHWYQQLPGTAPKLLIYDSINRPSGVPDRFSGSKSGTSASLAITGLQTEDEADYYCHSYDRSLSGSVFGGGTKLTVLG", "UNIT_OF_MEASUREMENT": "µg/mL", "OBSERVED_VALUE": 0.653}
{"BINDER": "EV046124 (antibody, human IgG1, lambda, V domains shown) VH: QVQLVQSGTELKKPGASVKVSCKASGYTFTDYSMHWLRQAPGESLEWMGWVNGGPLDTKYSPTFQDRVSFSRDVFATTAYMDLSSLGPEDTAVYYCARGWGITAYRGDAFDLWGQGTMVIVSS VL: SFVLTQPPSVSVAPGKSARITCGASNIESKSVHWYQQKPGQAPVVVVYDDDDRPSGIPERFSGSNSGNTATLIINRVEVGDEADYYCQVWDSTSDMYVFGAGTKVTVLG", "UNIT_OF_MEASUREMENT": "µg/mL", "OBSERVED_VALUE": 0.188}
